biological target: T1, rat collagen, acid soluble, type I, rat tail (Upstate 08-115) (rat, UniProt P02454 152-1207; P02466 86-1125); test: dried collagen assay
T1 construct: tissue extract, gelled and dried in wells; also called dried rat collagen
T1 sequence (P02454 152-1207, chain 1 of 2): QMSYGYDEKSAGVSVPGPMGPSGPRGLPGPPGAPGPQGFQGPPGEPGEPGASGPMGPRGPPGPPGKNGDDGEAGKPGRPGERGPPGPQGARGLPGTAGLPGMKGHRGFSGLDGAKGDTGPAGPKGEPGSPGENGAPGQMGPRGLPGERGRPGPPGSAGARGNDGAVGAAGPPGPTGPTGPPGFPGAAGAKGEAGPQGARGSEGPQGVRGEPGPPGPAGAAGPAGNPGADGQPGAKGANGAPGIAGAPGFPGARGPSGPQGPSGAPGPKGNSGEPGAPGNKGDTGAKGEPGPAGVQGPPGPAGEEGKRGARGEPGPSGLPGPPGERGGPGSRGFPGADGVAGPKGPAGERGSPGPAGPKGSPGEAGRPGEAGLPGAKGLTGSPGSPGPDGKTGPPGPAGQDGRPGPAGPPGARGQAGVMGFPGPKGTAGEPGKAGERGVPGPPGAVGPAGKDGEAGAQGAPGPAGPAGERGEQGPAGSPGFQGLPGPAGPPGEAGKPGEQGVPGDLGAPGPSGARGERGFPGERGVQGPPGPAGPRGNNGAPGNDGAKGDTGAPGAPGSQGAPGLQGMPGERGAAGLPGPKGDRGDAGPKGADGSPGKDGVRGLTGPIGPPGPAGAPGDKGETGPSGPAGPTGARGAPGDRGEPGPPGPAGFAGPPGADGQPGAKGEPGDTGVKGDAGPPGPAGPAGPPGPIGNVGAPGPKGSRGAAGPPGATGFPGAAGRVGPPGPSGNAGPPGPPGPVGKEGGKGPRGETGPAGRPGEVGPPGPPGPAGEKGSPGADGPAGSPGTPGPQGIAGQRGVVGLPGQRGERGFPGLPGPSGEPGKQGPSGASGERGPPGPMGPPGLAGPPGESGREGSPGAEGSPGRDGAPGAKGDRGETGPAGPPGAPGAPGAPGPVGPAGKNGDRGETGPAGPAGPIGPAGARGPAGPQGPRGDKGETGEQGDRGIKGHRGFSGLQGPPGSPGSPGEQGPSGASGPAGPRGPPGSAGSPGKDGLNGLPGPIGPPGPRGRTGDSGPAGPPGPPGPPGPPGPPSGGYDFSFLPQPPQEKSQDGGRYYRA
T1 sequence (P02466 86-1125, chain 2 of 2): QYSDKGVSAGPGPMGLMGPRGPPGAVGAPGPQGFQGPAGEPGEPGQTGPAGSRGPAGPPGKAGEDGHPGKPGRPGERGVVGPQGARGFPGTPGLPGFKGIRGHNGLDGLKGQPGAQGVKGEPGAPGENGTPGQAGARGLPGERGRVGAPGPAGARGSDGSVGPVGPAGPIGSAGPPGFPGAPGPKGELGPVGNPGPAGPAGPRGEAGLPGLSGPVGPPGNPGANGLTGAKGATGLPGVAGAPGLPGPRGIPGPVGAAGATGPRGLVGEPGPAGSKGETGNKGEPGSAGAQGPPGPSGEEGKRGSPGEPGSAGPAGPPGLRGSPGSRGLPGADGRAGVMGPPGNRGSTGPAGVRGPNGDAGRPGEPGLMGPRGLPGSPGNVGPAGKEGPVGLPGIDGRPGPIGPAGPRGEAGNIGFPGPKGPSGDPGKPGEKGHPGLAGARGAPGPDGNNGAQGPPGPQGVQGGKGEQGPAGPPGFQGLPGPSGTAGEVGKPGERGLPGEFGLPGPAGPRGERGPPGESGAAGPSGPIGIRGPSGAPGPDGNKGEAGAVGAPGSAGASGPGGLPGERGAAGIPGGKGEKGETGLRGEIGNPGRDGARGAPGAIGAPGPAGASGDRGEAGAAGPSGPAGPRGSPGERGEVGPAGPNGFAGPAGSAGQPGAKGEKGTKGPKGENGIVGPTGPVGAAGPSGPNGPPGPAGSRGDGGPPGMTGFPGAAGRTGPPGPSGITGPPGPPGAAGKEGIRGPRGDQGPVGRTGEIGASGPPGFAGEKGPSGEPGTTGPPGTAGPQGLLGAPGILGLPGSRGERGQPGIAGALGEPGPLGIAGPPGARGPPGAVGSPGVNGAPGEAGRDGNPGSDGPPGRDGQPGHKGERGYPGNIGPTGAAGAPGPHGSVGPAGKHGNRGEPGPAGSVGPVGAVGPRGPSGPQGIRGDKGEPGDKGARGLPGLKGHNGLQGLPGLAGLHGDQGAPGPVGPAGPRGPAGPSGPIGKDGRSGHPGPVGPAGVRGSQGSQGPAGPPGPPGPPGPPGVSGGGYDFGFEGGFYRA
Bridge positions count the residues as written; N and C are the ends. Square brackets hold non-standard residues; d marks the D form. Primed or numbered codes have the meaning given here. Side chains are listed from the residue outwards. Ends that are not written are not given here. * marks the point of attachment. Tyr(3-Cl) = N[C@@H](Cc1ccc(O)c(Cl)c1)C(=O)O; Gd^T(3) = GdDTPA attached via thiourea; 2Nal = N[C@@H](Cc1ccc2ccccc2c1)C(=O)O; Gd^T = not defined here; Gd^T″ = GdDTPA-thiourea; Cbz = O=C(OCc1ccccc1)*
Outcome label depends on % bound relative to 40%: at/above gives satisfied, below gives not satisfied.

# bool: % bound of {Gd^T″}-GHK([His-Gly-Gd^T″])WHCTTYFPHHYCLYG (disulfide 6-15 (inferred); not fully specified (C-terminus)) [Compound ID 984] >= 40% satisfied

# bool: % bound of Cbz-GQWHCTTK(Gd^T″)FPHHYCLYG (disulfide 5-14 (inferred)) [Compound ID 926] >= 40% satisfied

# bool: % bound of {Gd^T(3)}-GQWHCTTD[2Nal]PHHYCLYG (disulfide 5-14; not fully specified (C-terminus)) [Compound ID 894] >= 40% not satisfied

# bool: % bound of {Gd^T″}-GQWHCTTD[Tyr(3-Cl)]PHHYCLYG (disulfide 5-14 (inferred); not fully specified (C-terminus)) [Compound ID 895] >= 40% not satisfied

Turning now to a further record.
# bool: % bound of {Gd^T}-GQWHCTTRYPHHYCLYG (disulfide 5-14 (inferred); not fully specified (C-terminus); reading uncertain) [Compound ID 859] >= 40% not satisfied
